Target: human SERT (Homo sapiens, UniProt P31645)
Sequence (P31645 whole entry): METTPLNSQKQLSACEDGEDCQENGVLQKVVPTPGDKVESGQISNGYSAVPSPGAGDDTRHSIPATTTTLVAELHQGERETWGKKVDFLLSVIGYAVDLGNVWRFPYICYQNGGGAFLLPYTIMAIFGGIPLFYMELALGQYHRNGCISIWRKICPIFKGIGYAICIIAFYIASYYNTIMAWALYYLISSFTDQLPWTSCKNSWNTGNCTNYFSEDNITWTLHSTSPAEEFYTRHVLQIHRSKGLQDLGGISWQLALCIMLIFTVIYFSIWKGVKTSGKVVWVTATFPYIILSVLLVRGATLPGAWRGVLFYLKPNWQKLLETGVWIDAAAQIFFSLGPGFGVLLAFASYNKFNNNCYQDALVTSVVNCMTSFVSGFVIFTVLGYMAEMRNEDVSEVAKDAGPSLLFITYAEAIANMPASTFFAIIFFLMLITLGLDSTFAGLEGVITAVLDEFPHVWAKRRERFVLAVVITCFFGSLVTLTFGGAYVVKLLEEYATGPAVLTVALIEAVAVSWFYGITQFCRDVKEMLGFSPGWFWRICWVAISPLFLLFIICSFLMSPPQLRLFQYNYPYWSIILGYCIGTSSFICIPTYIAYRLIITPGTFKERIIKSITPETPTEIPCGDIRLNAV
# pKi annotations
Please note pKi is a logarithmic value: minus log10 of concentration in mol/L. Answer with that number alone.

Sample records with pKi:
Compound: COc1ccc(C2CN(C)Cc3cc(OCCCN4CCC(C#N)CC4)ccc32)cc1 (single isomer, unassigned) [Example 37A]
Test Target: human SERT (Homo sapiens, UniProt P31645)
Observable: pKi
Measured Result: 7.89
--
Compound: COc1ccc(C2CN(C)Cc3cc(OCCCN4CCC(F)(F)CC4)ccc32)cc1 (stereo not shown) [Example 8]
Test Target: human SERT (Homo sapiens, UniProt P31645)
Observable: pKi
Measured Result: 8.10
--
Compound: CSc1ccc(C2CN(C)Cc3cc(OCC4CN(C(C)C)C4)ccc32)cc1 (stereo not shown) [Example 236]
Test Target: human SERT (Homo sapiens, UniProt P31645)
Observable: pKi
Measured Result: 8.05

// returns reported pKi for input COc1ccc(C2CN(C)Cc3cc(OCCCN4CCC(C#N)CC4)ccc32)cc1 (single isomer, unassigned) [Example 37B]
8.22
